- experiment: chemical genetic growth profiling, strain panel (AID 1159580);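 also: tested at 20 µM; growth read once vehicle control cultures reached saturation at 30 °C; 1 = growth at the plate median or of vehicle wells; lower values mean less growth of the strain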
- testContext: S. cerevisiae deletion strains, growth OD, locus YNL020C, strain ARK1, active compounds read low
Screen size: about 5,500 compounds; about 2,000 (36%) were called active. Another 18% or so got no clear call; they are omitted. Some of the results follow.
testReadout: normalized growth
Keep it simple and answer with nothing but the number.

Observe how each entry below is paired with its result.
INSERT INTO assay_data (compound, testreadout, observedvalue) VALUES
  ('O=C(Nc1ccc(Cl)cc1Cl)c1cnccc1C(F)(F)F', 'normalized growth', 0.989),
  ('COc1cc(C(=O)Oc2c(Cl)cc(Cl)cc2C=Nc2cccc(C(F)(F)F)c2)cc(OC)c1OC', 'normalized growth', 0.594),
  ('N#CC1=C(N)C(C#N)(C#N)C2(CCCCC2)C2CCCC=C12 (stereo unspecified)', 'normalized growth', 0.998),
  ('COc1cc(N=Cc2cc(Cl)cc(Cl)c2OS(=O)(=O)c2ccc(C)cc2)c(OC)cc1Cl', 'normalized growth', 0.903),
  ('Cc1nc(C(F)(F)F)c(C(=O)O/N=C(/N)c2ccc(Cl)cc2)s1', 'normalized growth', 0.945);

Then there is this compound:
Record summary for OC(c1ccc(C(F)(F)F)cc1)c1cccc(C(F)(F)F)c1 (stereo unspecified) : reported normalized growth = 0.998

###

- experiment: chemical genetic growth profiling, strain panel (AID 1159580)
- testContext: S. cerevisiae deletion strains, growth OD, locus YKL068W
In all, about 5,500 compounds went through this assay and about 2,000 (36%) were called active. Roughly 18% stayed inconclusive and do not appear here. Rule as the data show it: active = normalized growth mostly below about 0.91 (no sharp cut-off); inconclusive = no clear call, values can overlap the other calls; inactive = mostly above about 0.92. The list shows a part of the results.
// one of Y = active, N = inactive, no free text

Please review the following examples before continuing.
INSERT INTO results (compound, categorylabel) VALUES
  ('COc1cc(/C=C/C(=O)O)ccc1O', 'N'),
  ('CC1=C(/C=C/C(C)=C/C=C/C(C)=C/C=C/C=C(C)/C=C/C=C(C)/C=C/C2=C(C)CCCC2(C)C)C(C)(C)CCC1', 'N'),
  ('C[C@](N)(Cc1ccc(O)c(O)c1)C(=O)O', 'N'),
  ('COc1c(C(=O)O)ccc2c1CCC(C)(C)O2', 'Y'),
  ('CC(=O)OCC(=O)[C@@]12OC(C)(C)O[C@@H]1CC1C3C[C@H](F)C4=CC(=O)C=C[C@]4(C)[C@@]3(F)[C@@H](O)C[C@@]12C (stereo partly drawn)', 'N'),
  ('COP(=S)(OC)Oc1ccc(SC)c(C)c1', 'N'),
  ('CC1=C(/C=C/C(C)=C/C=C/C(C)=C/C(=O)O)C(C)(C)CCC1', 'N'),
  ('COc1ccc(C[C@H](N)C(=O)N[C@@H]2[C@@H](CO)OC(n3cnc4c(N(C)C)ncnc43)[C@@H]2O)cc1 (stereo partly drawn)', 'N');

Ask: Hello, I am checking results. What call was entered for CC(=O)OC/C=C(C)/C=C/C=C(C)/C=C/C1=C(C)CCCC1(C)C ?
Result: N

Ask: Hello, I am checking results. What call was entered for CCCSP(=O)(OCC)SCCC ?
Result: N

###

Below, each entry is listed alongside its reported normalized growth.
- experiment: chemical genetic growth profiling, strain panel (AID 1159580)
- testContext: S. cerevisiae deletion strains, growth OD, locus YIR030C, strain dcg1, active compounds read low
Out of some 5,500 compounds screened, about 2,000 (36%) were called active. About 18% were inconclusive and are not listed. The list shows a part of the results.
Keep it simple and answer with nothing but the number.

INSERT INTO assay_data (compound, observedvalue) VALUES
  ('CN1CCc2cccc3c2C1Cc1ccc(O)c(O)c1-3 (stereo not given)', 1),
  ('CO[C@@H]1C[C@@H](C[C@H]2CC[C@H](C)[C@H]([C@@H](C)C(=O)O)O2)O[C@]2(O[C@](C)([C@H]3CC[C@@](C)(C4O[C@@H](C5O[C@@](O)(CO)[C@H](C)C[C@@H]5C)C[C@@H]4C)O3)C[C@H]2C)[C@@H]1C (stereo not given in full)', 0.982),
  ('C/C=C/c1ccc(OC)cc1', 1.02),
  ('COc1ccc(/C=C/c2cc(O)cc(O)c2)cc1', 0.957),
  ('COc1cc2c(cc1O)CC1c3c(cc(O)c(OC)c3-2)CCN1C (stereo not given)', 0.992),
  ('Nc1nc2ncc(CNc3ccc(C(=O)N[C@@H](CCC(=O)O)C(=O)O)cc3)nc2c(=O)[nH]1', 0.985),
  ('CCOP(=S)(OCC)SCCSCC', 0.996),
  ('CCOP(=S)(OCC)SCSCC', 1.01);

Record summary for O=C1O[C@@H](CO)[C@H](O)[C@@H](O)[C@@H]1O : reported normalized growth = 1

Record summary for Nc1nc(N)c2nc(CNc3ccc(C(=O)NC(CCC(=O)O)C(=O)O)cc3)cnc2n1 (stereo not given) : reported normalized growth = 0.988

###

Below, each entry is listed alongside its reported normalized growth.
- experiment: chemical genetic growth profiling, strain panel (AID 1159580)
- testContext: S. cerevisiae deletion strains, growth OD, locus YCL061C, strain MRC1, active compounds read low
The campaign covered roughly 5,500 compounds. About 2,000 (36%) were called active. Another 18% or so got no clear call; they are omitted. The list shows a part of the results.
Keep it simple and answer with nothing but the number.

Observe how each entry below is paired with its result.
INSERT INTO assay_data (compound, observedvalue) VALUES
  ('O=C(/C=C/c1ccc(O)c(O)c1)O[C@@H]1C[C@](O)(C(=O)O)C[C@@H](O)[C@H]1O', 1),
  ('C=CCc1cc(OC)c2c(c1OC)OCO2', 0.944),
  ('Oc1ccc(/C=C/c2cc(O)cc(O)c2)cc1', 0.99),
  ('O=C1O[C@@H](CO)[C@H](O)[C@@H](O)[C@@H]1O', 1.01),
  ('OC/C=C/c1ccc(O)c(O)c1', 0.996);

Then there is this molecule:
Record summary for C[C@H](COc1ccccc1)N[C@H](C)[C@H](O)c1ccc(O)cc1 : reported normalized growth = 0.986

###

- experiment: chemical genetic growth profiling, strain panel (AID 1159580);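 also: tested at 20 µM; growth read once vehicle control cultures reached saturation at 30 °C; 1 = growth at the plate median or of vehicle wells; lower values mean less growth of the strain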
- testContext: S. cerevisiae deletion strains, growth OD, locus YNL067W, strain RPL9B, active compounds read low
In all, about 5,500 compounds went through this assay and about 2,000 (36%) were called active. Roughly 18% stayed inconclusive and do not appear here. The list shows a part of the results.
testReadout: normalized growth
Keep it simple and answer with nothing but the number.

INSERT INTO measurements (molecule, observedvalue) VALUES
  ('O=C1N=C(O)CN1/N=C\c1ccc(-c2ccc([N+](=O)[O-])cc2)o1', 1.02),
  ('CC[C@@]1(C2O[C@@H](C3O[C@@](O)(CC)[C@H](C)C[C@@H]3C)C[C@@H]2C)CC[C@H]([C@]2(C)CCC3(C[C@H](O)[C@@H](C)[C@@H]([C@H](C)[C@@H](OC)[C@H](C)C(=O)O)O3)O2)O1 (stereo not given in full)', 0.959),
  ('NC(=O)N/N=C\c1ccc([N+](=O)[O-])o1', 1.01),
  ('O=C1OCCN1/N=C\c1ccc([N+](=O)[O-])o1', 0.97);

Then there is this molecule:
Record summary for Nc1c(Br)cc(Br)cc1CNC1CCC(O)CC1 (stereo not given) : reported normalized growth = 0.994

###

- experiment: chemical genetic growth profiling, strain panel (AID 1159580);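 also: tested at 20 µM; growth read once vehicle control cultures reached saturation at 30 °C; 1 = growth at the plate median or of vehicle wells; lower values mean less growth of the strain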
- testContext: S. cerevisiae deletion strains, growth OD, locus YER133W, strain GLC7, active compounds read low
The whole screen tested about 5,500 compounds, of which about 2,000 (36%) were called active. Roughly 18% stayed inconclusive and do not appear here. The list shows a part of the results.
testReadout: normalized growth
Keep it simple and answer with nothing but the number.

Observe how each entry below is paired with its result.
INSERT INTO assay_data (compound, observedvalue) VALUES
  ('CCCCCc1ccc(S(=O)(=O)Nc2ccc3c(c2)C(=O)OC3)cc1', 0.951),
  ('N/C(=N/OC(=O)c1ccc(Cl)cc1)c1ccc(F)cc1F', 0.446),
  ('Clc1ccc(-c2noc(CSC3=NCCN3)n2)cc1', 0.935),
  ('O=C(CCSc1cccs1)Nc1cccc(C(F)(F)F)c1', 0.965),
  ('CSc1cccc(N2C(=O)CC(c3c(Cl)cccc3Cl)CC2=O)c1', 0.993);

Record summary for CC1(C)C/C(=N/Nc2ccc(C(F)(F)F)cc2)c2cc(C(C)(C)C)c(O)c(O)c2O1 : reported normalized growth = 0.896

###

- experiment: chemical genetic growth profiling, strain panel (AID 1159580);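 also: tested at 20 µM; growth read once vehicle control cultures reached saturation at 30 °C; 1 = growth at the plate median or of vehicle wells; lower values mean less growth of the strain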
- testContext: S. cerevisiae deletion strains, growth OD, locus YLR268W, strain sec22, active compounds read low
The whole screen tested about 5,500 compounds, of which about 2,000 (36%) were called active. Roughly 18% stayed inconclusive and do not appear here. The list shows a part of the results.
testReadout: normalized growth
Keep it simple and answer with nothing but the number.

INSERT INTO measurements (molecule, testreadout, observedvalue) VALUES
  ('COc1ccc2c(c1O)-c1c(OC)c(OC)cc3c1[C@H](C2)N(C)CC3', 'normalized growth', 1.05),
  ('CC(=O)N[C@@H]1[C@@H](C(O)[C@H](O)CO)O[C@](O)(C(=O)O)C[C@@H]1O (some centres not stated)', 'normalized growth', 1.07),
  ('CC1(C)C2CC(=O)O[C@@]3(C)C4=CC(=O)O[C@@H](c5ccoc5)[C@]4(C)CCC3[C@@]2(C)C=C[C@H]1O (some centres not stated)', 'normalized growth', 1.01),
  ('CC1CC2C(C(O)CC3(C)C2CCC3(O)C(=O)COC(=O)CCC(=O)O)C2(C)C=CC(=O)C=C12 (configuration not stated)', 'normalized growth', 0.99);

Record summary for CC12CCC3C(CC=C4CC(O)CCC43C)C1CCC2=O (configuration not stated) : reported normalized growth = 0.882

Record summary for O=c1cccc2n1C[C@H]1CNCC2C1 : reported normalized growth = 0.971

Record summary for O=C(O)CNCP(=O)(O)O : reported normalized growth = 1

Record summary for c1cc2c(cc1[C@H]1OC[C@H]3[C@@H]1CO[C@H]3c1ccc3c(c1)OCO3)OCO2 : reported normalized growth = 0.833

Record summary for CO[C@@H]1[C@@H](O[C@@H]2O[C@H](C)[C@@H](O[C@H]3C[C@@](C)(O)[C@H](O)[C@H](C)O3)[C@H](N(C)C)[C@H]2O)[C@@H](CC=O)C[C@@H](C)[C@@H](O[C@H]2CC[C@H](N(C)C)[C@@H](C)O2)/C=C/C=C/C[C@H](C)OC(=O)C[C@H]1O : reported normalized growth = 0.996

Record summary for COc1ccccc1-c1cc(=O)c2cccc(OC)c2o1 : reported normalized growth = 0.924

Record summary for COc1cc2c3cc1Oc1cc(ccc1O)OC1c4c(cc(OC)c(O)c4Oc4ccc(cc4)CC3N(C)CC2)CCN1C (configuration not stated) : reported normalized growth = 1

Record summary for CC(=O)Oc1cc(C)c2c(c1C(OC(C)=O)OC(C)=O)Oc1c(c(C)c(OC(C)=O)c3c1C(OC(C)=O)OC3=O)OC2=O (configuration not stated) : reported normalized growth = 1.01

Record summary for COc1cc(C(=O)O)cc(OC)c1O : reported normalized growth = 0.991

Record summary for CCC(CCC(C)C1CCC2C3CC=C4C[C@@H](OC(C)=O)CC[C@]4(C)C3CC[C@]12C)C(C)C (some centres not stated) : reported normalized growth = 1.02

Record summary for S=c1[nH]c2ccccc2s1 : reported normalized growth = 0.932

Record summary for Nc1ccc(S(=O)(=O)Nc2nccs2)cc1 : reported normalized growth = 0.948

Record summary for CN1CCc2cccc3c2C1Cc1ccc(O)c(O)c1-3 (configuration not stated) : reported normalized growth = 1.01

Record summary for CCOP(=S)(OCC)Oc1ccc2c(C)c(Cl)c(=O)oc2c1 : reported normalized growth = 0.965

Record summary for COc1cc2c(cc1O)CC1c3c(cc(O)c(OC)c3-2)CCN1C (configuration not stated) : reported normalized growth = 0.976

Record summary for COc1ccccc1-c1cc(=O)c2c(OC)cccc2o1 : reported normalized growth = 0.98

Record summary for O=c1ccn([C@@H]2O[C@H](COP(=O)(O)OP(=O)(O)OP(=O)(O)O)[C@@H](O)[C@H]2O)c(=O)[nH]1 : reported normalized growth = 0.988

Record summary for NC(=O)c1cnccn1 : reported normalized growth = 1.05
